- Test system: SF-268 (CNS)
- testDescription: Sulforhodamine B human cancer cell growth inhibition, SF-268
- Format: cell-based
- testContext: Homo sapiens, SF-268 CNS cell line, compounds in DMSO, 48 h, read-out: Gl50 Growth Inhibition, SF-268
observedProperty: IC50

C=C(CNC(=O)[C@H](C)[C@@H](OC)C1CCCN1C(=O)C[C@@H](OC)[C@H]([C@@H](C)CC)N(C)C(=O)[C@@H](NC(=O)C(C(C)C)N(C)C)C(C)C)[C@@H]1CC[C@]2(CO)CC[C@]3(C)C(CCC4[C@@]5(C)CC[C@H](O)C(C)(C)[C@@H]5CC[C@]43C)[C@@H]12 (stereo partly drawn) [Compound 16b, 30-N-(Dap-Dil-Val-Dov)-betulin]; 0.04 mg/L
C=C(C)[C@@H]1CC[C@]2(COC(C)=O)CC[C@]3(C)C(CCC4[C@@]5(C)CC[C@H](NC(=O)[C@H](C)[C@@H](OC)C6CCCN6C(=O)OC(C)(C)C)C(C)(C)[C@@H]5CC[C@]43C)[C@@H]12 (stereo partly drawn); > 10 mg/L
C=C(C)[C@@H]1CC[C@]2(CN)CC[C@]3(C)C(CCC4[C@@]5(C)CC[C@H](OC(C)=O)C(C)(C)C5CC[C@]43C)C12 (stereo partly drawn); 1.8 mg/L

Prompt line: Item C=C(C)[C@@H]1CC[C@]2(COC(C)=O)CC[C@]3(C)C(CCC4[C@@]5(C)CC/C(=N/O)C(C)(C)[C@@H]5CC[C@]43C)[C@@H]12 (stereo partly drawn) has what recorded IC50?
Response line: > 10 mg/L

Prompt line: Same question, CC[C@H](C)C([C@@H](CC(=O)N1CCCC1[C@H](OC)[C@@H](C)C(=O)NCCN1C(=O)[C@]23CCC(C)(C)C1C2[C@H]1CCC2[C@@]4(C)CC[C@H](O)C(C)(C)C4CC[C@@]2(C)[C@]1(C)CC3)OC)N(C)C(=O)[C@@H](NC(=O)[C@H](C(C)C)N(C)C)C(C)C (stereo partly drawn) [Compound 18b] this time
Response line: 0.09 mg/L

Prompt line: Moving on to C=C(C)[C@@H]1CC[C@]2(CO)CC[C@]3(C)[C@H](CC[C@@H]4[C@@]5(C)CC[C@H](O)C(C)(C)[C@@H]5CC[C@]43C)[C@@H]12 [Betulin, betulin, reference compound]
Response line: > 10 mg/L

Prompt line: And then C=C(C)[C@@H]1CC[C@]2(CNC(=O)[C@H](C)[C@@H](OC)C3CCCN3C(=O)OC(C)(C)C)CC[C@]3(C)C(CCC4[C@@]5(C)CC[C@H](OC(C)=O)C(C)(C)C5CC[C@]43C)C12 (stereo partly drawn) , what is it?
Response line: > 10 mg/L

Prompt line: Quick one: C=C(C)[C@@H]1CC[C@]2(CNC(=O)[C@H](C)[C@@H](OC)C3CCCN3C(=O)C[C@@H](OC)[C@H]([C@@H](C)CC)N(C)C(=O)C(NC(=O)[C@H](C(C)C)N(C)C)C(C)C)CC[C@]3(C)C(CCC4[C@@]5(C)CC[C@H](O)C(C)(C)C5CC[C@]43C)C12 (stereo partly drawn)
Response line: 0.3 mg/L

Prompt line: Next molecule up: C=C(CN=[N+]=[N-])[C@@H]1CC[C@]2(COC(C)=O)CC[C@]3(C)C(CCC4[C@@]5(C)CC[C@H](OC(C)=O)C(C)(C)[C@@H]5CC[C@]43C)[C@@H]12 (stereo partly drawn)
Response line: > 10 mg/L
